tested on: Herpes simplex type 1 virus (HFEM strain); test: Plaque reduction assay in virus-infected Vero cells (agarose overlay, 4 days); assay type: cell-based; conditions: Human alphaherpesvirus 1, 96 h, concentration causing a 50% reduction in the number of virus plaques, 4 days incubation, read-out: PDD50 (the source's name)
Param label: returns fulfilled when IC50 < 2 µg/mL, returns not fulfilled otherwise, including exact equality.

// below: answered compounds
{"columns": ["Smiles Repr", "Assay Target", "Label"],
 "data": [
  ["CC(=O)O[C@H]1C[C@H](n2cc(/C=C/Br)c(=O)[nH]c2=O)O[C@@H]1COC(=O)OC[C@H]1O[C@@H](n2cc(/C=C/Br)c(=O)n(C(C)=O)c2=O)C[C@@H]1OC(C)=O", "Herpes simplex type 1 virus (HFEM strain)", "not fulfilled"],
  ["CC(=O)O[C@H]1C[C@H](n2cc(/C=C/Br)c(=O)[nH]c2=O)O[C@@H]1COC(=O)OC[C@H]1O[C@@H](n2cc(/C=C/Br)c(=O)[nH]c2=O)C[C@@H]1OC(C)=O", "Herpes simplex type 1 virus (HFEM strain)", "not fulfilled"],
  ["O=C(OC[C@H]1O[C@@H](n2cc(/C=C/Br)c(=O)[nH]c2=O)C[C@@H]1O)OC[C@H]1O[C@@H](n2cc(/C=C/Br)c(=O)[nH]c2=O)C[C@@H]1O", "Herpes simplex type 1 virus (HFEM strain)", "fulfilled"]
]}

**Q:** Problem: For the compound O=C(CCCCCCCCC(=O)OC[C@H]1O[C@@H](n2cc(/C=C/Br)c(=O)[nH]c2=O)C[C@@H]1O)OC[C@H]1O[C@@H](n2cc(/C=C/Br)c(=O)[nH]c2=O)C[C@@H]1O , is IC50 under 2 µg/mL?
**A:** fulfilled

**Q:** Please state whether IC50 is below 2 µg/mL for O=C(CCC(=O)OC[C@H]1O[C@@H](n2cc(/C=C/Br)c(=O)[nH]c2=O)C[C@@H]1O)OC[C@H]1O[C@@H](n2cc(/C=C/Br)c(=O)[nH]c2=O)C[C@@H]1O
**A:** not fulfilled

**Q:** Is IC50 of O=C(n1c(=O)c(/C=C/Br)cn([C@H]2C[C@H](O)[C@@H](CO)O2)c1=O)n1c(=O)c(/C=C/Br)cn([C@H]2C[C@H](O)[C@@H](CO)O2)c1=O strictly below 2 µg/mL?
**A:** fulfilled

**Q:** Lab note: IC50 threshold 2 µg/mL. Does this compound come in strictly under it? O=C(O[C@H]1C[C@H](n2cc(/C=C/Br)c(=O)[nH]c2=O)O[C@@H]1CO)O[C@H]1C[C@H](n2cc(/C=C/Br)c(=O)[nH]c2=O)O[C@@H]1CO
**A:** fulfilled

Taken from patent EP0095292A1.
